Every entry's value here was drawn from patent US9073853B2.

assayedTarget: human CXCR3-A receptor (Homo sapiens (Human))
Sequence (P49682 whole entry): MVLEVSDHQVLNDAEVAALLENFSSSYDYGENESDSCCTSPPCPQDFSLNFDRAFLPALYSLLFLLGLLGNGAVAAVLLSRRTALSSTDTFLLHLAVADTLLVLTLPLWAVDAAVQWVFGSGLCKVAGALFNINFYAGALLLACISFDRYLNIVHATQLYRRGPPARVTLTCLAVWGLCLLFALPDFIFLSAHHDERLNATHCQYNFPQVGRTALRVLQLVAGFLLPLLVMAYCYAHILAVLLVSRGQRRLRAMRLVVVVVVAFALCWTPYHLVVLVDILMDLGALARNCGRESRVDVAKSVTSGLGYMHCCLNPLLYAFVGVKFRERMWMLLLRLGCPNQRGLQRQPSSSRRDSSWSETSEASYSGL
experimentNotes: 125I-CXCL10 competition radioligand binding assay
assayConditions: displacement of 125I-CXCL10 from membranes of CHO cells expressing human recombinant CXCR3-A
Label key: satisfied means IC50 under 80 nM; not satisfied means IC50 of 80 nM or more.

Look over these answered cases.
| molecule | assayedTarget | categoryLabel |
| --- | --- | --- |
| COc1cc(CN(C[C@@H]2C[C@H]2C(=O)O)C(C)c2ccc3c(c2)CCO3)ccc1OCCN1C(=O)CCC1=O (stereo partly drawn) | human CXCR3-A receptor (Homo sapiens (Human)) | not satisfied |
| COc1cc(CN(C[C@H]2CC[C@H](C(=O)O)CC2)C(C)c2ccc3c(c2)CCC3)ccc1OCCN1C(=O)CN(C)C1=O (stereo partly drawn) | human CXCR3-A receptor (Homo sapiens (Human)) | not satisfied |
| CCc1cc(CN(C[C@H]2CC[C@H](C(=O)O)CC2)[C@H]2CCc3c2ccc(Cl)c3Cl)ccc1OCCN1C(=O)CCC1=O | human CXCR3-A receptor (Homo sapiens (Human)) | not satisfied |
| C[C@@H](c1ccc(Cl)cc1)N(Cc1ccc(OCCN2C(=O)CCC2=O)c(CO)c1)C[C@H]1CC[C@H](C(=O)O)CC1 | human CXCR3-A receptor (Homo sapiens (Human)) | satisfied |
| COc1cc(CN(C[C@H]2CC[C@H](C(=O)O)C2)[C@H](C)c2ccc3c(c2)CCO3)ccc1OCCN1C(=O)CCC1=O | human CXCR3-A receptor (Homo sapiens (Human)) | satisfied |
| COc1cc(CN(CC2CCCC(C(=O)O)C2)C(C)c2ccc3c(c2)CCO3)ccc1OCCN1C(=O)CCC1=O (stereo not drawn) | human CXCR3-A receptor (Homo sapiens (Human)) | not satisfied |

// query Dear colleague, could you confirm whether IC50 of `C[C@@H](c1ccc(Cl)cc1)N(Cc1ccc(OCCN2C(=O)CCC2=O)c(F)c1)C[C@H]1CC[C@H](C(=O)O)CC1` falls below 80 nM? Thanks.
// result not satisfied

// query Criterion: IC50 strictly below 80 nM. Is it met by `COc1cc(CN(C[C@H]2CC[C@H](C(=O)O)CC2)[C@@H](C)c2ccc(Cl)cc2)ccc1OCCn1c(=O)ccn(C)c1=O` ?
// result satisfied

====

assayedTarget: human CXCR3-A receptor (Homo sapiens (Human))
experimentNotes: 125I-CXCL10 competition radioligand binding assay
assayConditions: displacement of 125I-CXCL10 from membranes of CHO cells expressing human recombinant CXCR3-A
measuredQuantity: IC50 (nM)
Kindly provide the numeric value in nM only, without the unit symbol.

| compound | measureUnit | IC50 |
| --- | --- | --- |
| COc1cc(CN(C[C@H]2CC[C@H](C(=O)O)CC2)C(C)c2ccc3c(c2)CCO3)ccc1OCCN1C(=O)COC1=O (stereo partly shown) [Example 19] | nM | 55 |
| CC(c1ccc2c(c1)CCO2)N(Cc1ccc(CCCN2C(=O)CCC2=O)c(Cl)c1)C[C@H]1CC[C@H](C(=O)O)CC1 (stereo partly shown) [Example 47] | nM | 800 |
| COc1cc(CN(C[C@H]2CC[C@H](C(=O)O)CC2)[C@@H](C)c2ccc(Cl)cc2)ccc1CCCN1C(=O)CCC1=O [Example 56] | nM | 215 |

Kindly note: human CXCR3-A receptor (Homo sapiens (Human)), CCOC(=O)[C@@H]1C[C@H]1CN(Cc1ccc(OCCN2C(=O)CCC2=O)c(OC)c1)C(C)c1ccc2c(c1)CCO2 (stereo partly shown) [Example 111] , IC50 value reported: 646

// assay human CXCR3-A receptor (Homo sapiens (Human)), entry COc1cc(CN([C@H]2C[C@@H](C(=O)O)C2)[C@H](C)c2ccc(Cl)c(F)c2)ccc1OCCN1C(=O)CCC1=O [Example 150] , IC50 value = 98

IC50 for human CXCR3-A receptor (Homo sapiens (Human)) with input COc1cc(CN(C[C@H]2CC[C@H](C(=O)O)CC2)C(C)c2ccc3c(c2)CCO3)ccc1OCCN1C(=O)CCCC1=O (stereo partly shown) [Example 38] equals 163

Observed IC50, human CXCR3-A receptor (Homo sapiens (Human)), COc1cc(CN(C(C)c2ccc3c(c2)CCO3)[C@H]2C[C@H](C(=O)O)C2)ccc1OCCn1c(=O)ccn(C)c1=O (stereo partly shown) [Example 120] : 2900
